This collection of values is drawn from PubChem BioAssay (NCI).

For each of the molecules below, state its growth.
- Tested on: BT-549 breast
- assay-text: NCI-60 one-dose screen, 48 h (100 = growth as untreated, 0 = no growth, -100 = all killed)
- condition-summary: 10 µM unless noted
About 83,000 compounds went through this panel and 20% of them were active in at least one assay; those are over-represented in the sample as a whole. Active and inactive are the calls of the source. How the source made its calls: active means growth percent below 10; inactive means the rest.

>>> df
                        molecule  measured_quantity   measured_value
0  CCN(C(=O)Nc1ccccc1Cl)c1ccccc1             growth  106% (inactive)
1        Nc1ncc([N+](=O)[O-])cn1             growth  111% (inactive)

Lab note: each molecule below needs its growth filled in.
1. COC(CCCl)c1ccc(Cl)cc1 (configuration not stated)
2. CCOC(=N)CC(=O)Nc1cccc(C)c1Cl
3. CCCCCCCCCCCCCCCCCC(=O)NCCNC(=O)CCCCCCCCCCCCCCCCC
4. Ic1cccs1
5. CCOc1ccncc1[N+](=O)[O-]
6. BrCc1cccc(C[P+](c2ccccc2)(c2ccccc2)c2ccccc2)c1

1: 102% (inactive); 2: 103% (inactive); 3: 105% (inactive); 4: 107% (inactive); 5: 111% (inactive); 6: 93.1% (inactive)

Please report growth for every entry that follows.
1. COc1cc2c(c(OC)c1OC)-c1ccc(SC)c(=O)cc1[C@@H](NC1OC(CO)C(O)C(O)C1O)CC2 (some centres not stated)
2. c1ccc(Oc2c3ccccc3nc3ccccc23)cc1
3. COc1nc2ccccc2s1
4. Oc1ccc(N=Cc2ccc(OCc3ccccc3)cc2)cc1
5. O=C(c1cccc(C(=O)c2ccc3c4c(cccc24)C(=O)N(c2ccccc2)C3=O)c1)c1ccc2c3c(cccc13)C(=O)N(c1ccccc1)C2=O
6. CCCCN(C(=O)CC)c1ccccc1

1: 14.9% (inactive); 2: 25.2% (inactive); 3: 90.6% (inactive); 4: 84.6% (inactive); 5: 104% (inactive); 6: 104% (inactive)

Provide growth values for the following items, in order.
1. CCOC(=O)c1cc(C)[nH]c(=O)c1C#N
2. Oc1cc2ccccc2c(-c2c(O)c(O)cc3ccccc23)c1O
3. CCOC(=O)c1ccc(NC(C)=O)o1
4. CCCCc1ccc2nc(NC(=O)OC)[nH]c2c1
5. CCOC(=O)/C(C#N)=C\c1c[nH]c2ccccc12

92.9% (inactive)
5.13% (active)
104% (inactive)
31.1% (inactive)
129% (inactive)

Batch request: growth for each of the following molecules.
1. CS(=O)(=O)c1ccc(/C=C\C(=O)O)cc1
2. O=C(c1ccc(Cl)cc1)N1CCCCC1
3. CCOc1ccc(C(=O)NCC(C)C)cc1

102% (inactive)
105% (inactive)
98.3% (inactive)
